Data origin, for the record: patent US9241924B2

- assay_comment: Phase 1 multiple ascending dose study, pharmacokinetics
- Assay type: in vivo
- setup_conditions: human, blood, po; SDD tablet 25 mg orally once daily, repeat (5) daily doses, subjects with pre-diabetes, mean (±SD)
experimental_endpoint: Cmax (ng/mL)
Give your result in ng/mL as a bare value.

Lookup result for `CCc1cnc(N2CCC(c3nc(COc4ccc(-n5cnnn5)cc4)cs3)CC2)nc1` ; measured Cmax: 346

---

- assay_comment: Phase 1 multiple ascending dose study, pharmacokinetics
- Type: in vivo
- setup_conditions: human, blood, po; SDD tablets 600 mg orally once daily, repeat (5) daily doses, mean (±SD)
experimental_endpoint: Tmax (h)
Give a bare numeral; the unit h is implied.

Tmax recorded for this molecule, `CCc1cnc(N2CCC(c3nc(COc4ccc(-n5cnnn5)cc4)cs3)CC2)nc1` , is 3.3

---

- assay_comment: In vivo systemic exposure in male beagle dogs, oral dosing
- setup_conditions: dog, 200 mg/kg orally
experimental_endpoint: Cmax (ng/mL)
Reply with just the number (in ng/mL).

Measured Cmax of `CCc1cnc(N2CCC(c3nc(COc4ccc(-n5cnnn5)cc4)cs3)CC2)nc1` : 2000

---

- assay_comment: Phase 1 multiple ascending dose study, pharmacokinetics
- Assay type: in vivo
- setup_conditions: human, blood, po; SDD tablets 300 mg orally once daily, repeat (5) daily doses, mean (±SD)
experimental_endpoint: half-life (min)
Your answer should be a plain number; it is taken to be in min.

half-life measured on CCc1cnc(N2CCC(c3nc(COc4ccc(-n5cnnn5)cc4)cs3)CC2)nc1 [Compound A] = 918

---

- assay_comment: Phase 1 multiple ascending dose study, pharmacokinetics
- Type: in vivo
- setup_conditions: human, blood, po; SDD tablet 100 mg orally once daily, repeat (5) daily doses, mean (±SD)
experimental_endpoint: half-life (h)
Provide the reading as a plain figure in h.

// sample `CCc1cnc(N2CCC(c3nc(COc4ccc(-n5cnnn5)cc4)cs3)CC2)nc1` , its half-life was 18.3

---

- assay_comment: Phase 1 multiple ascending dose study, pharmacokinetics
- Format: in vivo
- setup_conditions: human, blood, po; SDD tablet 100 mg orally once daily, repeat (5) daily doses, mean (±SD)
experimental_endpoint: AUC(0-inf) (ng·h/mL)
Provide only the numeric value, understood in ng·h/mL.

# AUC(0-inf) (compound: CCc1cnc(N2CCC(c3nc(COc4ccc(-n5cnnn5)cc4)cs3)CC2)nc1 [Compound A] ) is 24600

---

- assay_comment: Phase 1 multiple ascending dose study, pharmacokinetics
- Assay type: in vivo
- setup_conditions: human, blood, po; SDD tablet 25 mg orally once daily, repeat (5) daily doses, mean (±SD)
experimental_endpoint: half-life (h)
Just the number in h, nothing appended.

# compound CCc1cnc(N2CCC(c3nc(COc4ccc(-n5cnnn5)cc4)cs3)CC2)nc1 [Compound A] ; its half-life = 14

---

- assay_comment: Phase 1 multiple ascending dose study, pharmacokinetics
- Format: in vivo
- setup_conditions: human, blood, po; SDD tablet 25 mg orally once daily, repeat (5) daily doses, mean (±SD); read-out: AUC0-24 h
experimental_endpoint: AUC(0-t) (ng·h/mL)
Give just the number in ng·h/mL; leave the unit off.

For this compound ( CCc1cnc(N2CCC(c3nc(COc4ccc(-n5cnnn5)cc4)cs3)CC2)nc1 [Compound A] ), measured AUC(0-t) is 4150

---

- assay_comment: Phase 1 multiple ascending dose study, pharmacokinetics
- Assay type: in vivo
- setup_conditions: human, blood, po; SDD tablet 100 mg orally once daily, repeat (5) daily doses, mean (±SD)
experimental_endpoint: Cmax (ng/mL)
Dear colleague, please return just the value in ng/mL, with no unit written.

Cmax in this record for `CCc1cnc(N2CCC(c3nc(COc4ccc(-n5cnnn5)cc4)cs3)CC2)nc1` : 1150
